# measurement.description: Determination of binding constants of inhibitor (NNIC) in Model B detergent, Suc-AAPF-pNA read-out
# Format: biochemical
# test.context: Ki of variant with the mutation relative to variant without the mutation, <1.0 beneficial
# Description: Purified protease variants are pre-diluted to approximately 0.2 mg/ml in dilution buffer. […] 100 μl substrate solution is added and after 5 sec mixing absorbance at 405 nm is measured every 20 sec for 5 min on a SpectraMax Plus reader. Slope from linear regression of initial increase in absorbance at 405 nm is used for calculation of apparent binding constants. […] The Ki for the parent protease and for each variant was calculated as described above […] Ki were calculated as shown in Example 3. […]
quantity.kind: Inhibitor-binding relative Kimutation, inhibitor binding in Model B
Number, no unit, nothing else.

| molecule | observed.result |
| --- | --- |
| K146T, S173P, S175P, F180Y: TY145 protease (SEQ ID NO 3) variant with these substitutions (protein, listed as Bacillus sp.) AVPSTQTPWGIKSIYNDQSITKTTGGSGIKVAVLDTGVYTSHLDLAGSAEQCKDFTQSNPLVDGSCTDRQGHGTHVAGTVLAHGGSNGQGVYGVAPQAKLWAYKVLGDNGSGYSDDIAAAIRHVADEASRTGSKVVINMSLGSSATDSLIASAVDYAYGKGVLIVAAAGNSGPGPNTIGYPGGLVNAVAVAALENVQQNGTYRVADFSSRGNPATAGDYIIQERDIEVSAPGASVESTWYTGGYNTISGTSMATPHVAGLAAKIWSANTSLSHSQLRTELQNRAKVYDIKGGIGAGTGDDYASGFGYPRVK | 0.08 |

**Query** I would be grateful if you could share the reported Inhibitor-binding relative Kimutation, inhibitor binding in Model B for I150N, S173P, S175P, F180Y: TY145 protease (SEQ ID NO 3) variant with these substitutions (protein, listed as Bacillus sp.) AVPSTQTPWGIKSIYNDQSITKTTGGSGIKVAVLDTGVYTSHLDLAGSAEQCKDFTQSNPLVDGSCTDRQGHGTHVAGTVLAHGGSNGQGVYGVAPQAKLWAYKVLGDNGSGYSDDIAAAIRHVADEASRTGSKVVINMSLGSSAKDSLNASAVDYAYGKGVLIVAAAGNSGPGPNTIGYPGGLVNAVAVAALENVQQNGTYRVADFSSRGNPATAGDYIIQERDIEVSAPGASVESTWYTGGYNTISGTSMATPHVAGLAAKIWSANTSLSHSQLRTELQNRAKVYDIKGGIGAGTGDDYASGFGYPRVK .
**Result** 0.35
